- Tested System: T1, human factor Xa (human, UniProt P00742 41-179; P00742 235-488)
- T1 chain 1: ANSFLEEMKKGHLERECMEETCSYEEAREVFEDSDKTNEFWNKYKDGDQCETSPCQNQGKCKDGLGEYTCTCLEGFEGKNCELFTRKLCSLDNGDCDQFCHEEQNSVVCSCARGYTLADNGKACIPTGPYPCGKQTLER
- T1 chain 2: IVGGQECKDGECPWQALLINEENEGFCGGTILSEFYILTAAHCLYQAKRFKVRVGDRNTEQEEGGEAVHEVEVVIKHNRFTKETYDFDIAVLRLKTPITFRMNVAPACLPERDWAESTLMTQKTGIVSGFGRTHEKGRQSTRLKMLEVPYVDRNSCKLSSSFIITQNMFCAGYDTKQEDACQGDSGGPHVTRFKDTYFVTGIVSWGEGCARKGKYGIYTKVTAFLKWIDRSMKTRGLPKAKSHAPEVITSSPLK
- Assay: enzyme inhibition
# maps each entry to its Ki
Entry rule: numbers only, all in nM.

Observe how each entry below is paired with its result.
| Binder | Unit Annotation | Ki |
| --- | --- | --- |
| DD109 (protein) EVVREVCSEQAETGPCRAIISRWYFDVTEGKCAPFFYGGCGGNRNNFDTEEYCMAVCGSAI | nM | 421 |
| DD110 (protein) EVVREVCSEQAETGPCRALISRWYFDVTEGKCAPFFYGGCGGNRNNFDTEEYCMAVCGSAI | nM | 55 |
| DD108 (protein) EVVREVCSEQAETGPCRAAISRWYFDVTEGKCAPFFYGGCGGNRNNFDTEEYCMAVCGSAI | nM | 123 |

q: Field request: Ki | item: wild-type KPI (-4→57) (peptide) LDKREVVREVCSEQAETGPCRAMISRWYFDVTEGKCAPFFYGGCGGNRNNFDTEEYCMAVCGSAI
a: 161

q: Field request: Ki | item: TW6167 (protein) EVVREVCSEQAEPGPCRAMISRWYFDVTEGKCAPFFYGGCGGNRNNFDTEEYCMAVCGSAI
a: 288

Source: patent US6906033
